- Tested on: SK-MEL-28 melanoma
- experiment.summary: NCI tumour cell line growth inhibition, 48 h

>  <compound>
Cc1cc(C)nc(SC2=C(Nc3cccc(Cl)c3)C(=O)N(Cc3ccccc3)C2=O)n1

>  <TGI>
> 170 µM

$$$$
>  <compound>
COc1ccc(C(=O)N2CCN(c3ccc4[nH]c(=O)oc4c3)CC2)cc1

>  <TGI>
> 100 µM

$$$$
>  <compound>
COc1cc(CCCC(O)COc2cccc3c2C2(O)CCCCCC32)cc(OC)c1 (stereo not given)

>  <TGI>
31.1 µM

$$$$
>  <compound>
Cc1ncc([N+](=O)[O-])n1CCNC(=O)CCn1ccnc1[N+](=O)[O-]

>  <TGI>
> 100 µM

$$$$
>  <compound>
O=C1NC(Cc2c[nH]c3ccccc23)C(=O)N2C(c3ccccc3)c3[nH]c4ccccc4c3C[C@@H]12 (stereo not given in full)

>  <TGI>
> 100 µM

$$$$
>  <compound>
[N-]=[N+]=CC(=O)OCC(N)C(=O)O (stereo not given)

>  <TGI>
> 100 µM

$$$$
>  <compound>
C=CCN(N=O)C(=O)N(CCC)CCCCC(NC(C)=O)C(=O)NCc1ccccc1 (stereo not given)

>  <TGI>
> 100 µM

$$$$
>  <compound>
COC(=O)C#Cc1ccc([N+](=O)[O-])cc1

>  <TGI>
4.13 µM

$$$$
>  <compound>
S=C1NN=C2C(=C3CCCC4C5CCCCC5N2C34)N1 (stereo not given)

>  <TGI>
> 100 µM

$$$$
>  <compound>
Clc1ccc(CO/N=C(\Cn2ccnc2)c2ccc(Cl)cc2Cl)c(Cl)c1

>  <TGI>
3.07 µM

$$$$
>  <compound>
COC(=O)Nc1nc2ccc(Oc3ccc(NC(=O)Nc4cccc(Cl)c4)cc3)cc2[nH]1

>  <TGI>
7.41 µM

$$$$
>  <compound>
Cc1ccc(C(=O)NC2CCCCC2)cc1-c1ccc(C(=O)NCC2CC2)cc1

>  <TGI>
> 25 µM

$$$$
>  <compound>
Cc1ccc2sc3c(NCCCNCCO)nc4ccccc4c3c(=O)c2c1

>  <TGI>
3.36 µM

$$$$
>  <compound>
CCOC(=O)/C(=C\NC(C)(C)C)c1nc2ccccc2o1

>  <TGI>
> 100 µM

$$$$
>  <compound>
CN(C)CC1CCn2c(c(C3=C(c4cn(C)c5ccccc45)C(=O)NC3=O)c3ccccc32)C1 (stereo not given)

>  <TGI>
8.74 µM

$$$$
